- Test System: Angiotensin-converting enzyme (Rattus norvegicus) (UniProt P47820)
- Sequence (P47820 whole entry): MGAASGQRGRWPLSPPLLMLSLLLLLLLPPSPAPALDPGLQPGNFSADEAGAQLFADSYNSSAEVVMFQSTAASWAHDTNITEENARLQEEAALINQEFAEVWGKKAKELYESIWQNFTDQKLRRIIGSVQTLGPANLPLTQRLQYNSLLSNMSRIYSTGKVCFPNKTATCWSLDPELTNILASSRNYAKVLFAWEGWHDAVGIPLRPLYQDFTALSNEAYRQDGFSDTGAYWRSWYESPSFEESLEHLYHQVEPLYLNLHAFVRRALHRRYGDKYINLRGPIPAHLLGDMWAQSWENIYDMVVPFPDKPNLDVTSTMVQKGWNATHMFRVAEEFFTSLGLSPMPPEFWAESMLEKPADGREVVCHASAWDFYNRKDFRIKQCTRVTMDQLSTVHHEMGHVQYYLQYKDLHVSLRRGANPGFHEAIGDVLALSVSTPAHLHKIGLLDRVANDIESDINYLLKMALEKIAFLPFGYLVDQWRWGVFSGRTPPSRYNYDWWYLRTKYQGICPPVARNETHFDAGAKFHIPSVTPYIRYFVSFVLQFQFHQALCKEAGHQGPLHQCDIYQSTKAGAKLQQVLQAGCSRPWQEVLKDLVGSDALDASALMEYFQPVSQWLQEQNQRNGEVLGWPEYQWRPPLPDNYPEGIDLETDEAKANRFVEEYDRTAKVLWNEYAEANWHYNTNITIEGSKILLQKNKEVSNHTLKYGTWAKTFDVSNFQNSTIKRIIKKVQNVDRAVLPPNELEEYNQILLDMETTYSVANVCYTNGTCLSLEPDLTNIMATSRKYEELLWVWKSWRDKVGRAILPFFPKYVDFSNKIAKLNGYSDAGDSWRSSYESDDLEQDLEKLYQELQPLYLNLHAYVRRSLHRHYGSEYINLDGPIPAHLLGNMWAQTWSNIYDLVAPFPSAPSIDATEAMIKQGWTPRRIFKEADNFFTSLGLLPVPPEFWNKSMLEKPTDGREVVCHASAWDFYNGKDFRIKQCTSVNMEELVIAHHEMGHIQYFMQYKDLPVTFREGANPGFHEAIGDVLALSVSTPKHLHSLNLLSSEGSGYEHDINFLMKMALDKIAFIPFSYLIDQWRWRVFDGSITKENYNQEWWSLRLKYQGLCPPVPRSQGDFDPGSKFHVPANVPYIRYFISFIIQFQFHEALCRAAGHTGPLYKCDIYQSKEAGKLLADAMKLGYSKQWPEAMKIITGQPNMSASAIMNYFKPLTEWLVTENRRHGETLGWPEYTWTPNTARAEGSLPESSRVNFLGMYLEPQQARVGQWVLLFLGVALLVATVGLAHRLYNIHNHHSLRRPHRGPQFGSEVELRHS
- Experimental Protocol: Evaluation of plasma inhibition of Angiotensin I converting enzyme activity in conscious rat 6 hours after intravenous administration at a dose of 10 mg/kg
- Assay type: functional, organism-based
- Parameters: dose 10 mg/kg
Observation Type: inhibition (%)
Hi! Could you send only the number? It should be in %, unit omitted.

Would you please look over these solved cases?
{"columns": ["Record Smiles", "Endpoint Result"],
 "data": [
  ["CC(C)[C@H](S)C(=O)NC1(C(=O)N[C@@H](CCc2ccccc2)C(=O)O)CCCC1", 75],
  ["CC(C)[C@H](S)C(=O)NC1(C(=O)N[C@@H](Cc2ccc(F)cc2)C(=O)O)CCCC1", 28],
  ["CC(C)[C@H](S)C(=O)NC1(C(=O)N[C@@H](Cc2ccc(O)cc2)C(=O)O)CCCC1", 68],
  ["CC(C)[C@H](S)C(=O)NC1(C(=O)N[C@@H](Cc2ccc(O)cc2)C(=O)O)Cc2ccccc2C1", 9],
  ["CC(C)[C@H](S)C(=O)NC1(C(=O)N[C@@H](Cc2cccs2)C(=O)O)CCCC1", 29],
  ["CC(C)[C@H](S)C(=O)NC1(C(=O)N[C@@H](Cc2ccsc2)C(=O)O)CCCC1", 71]
]}

Next:
// query If you can, please state the reported inhibition value of O=C(O)[C@H](Cc1ccc(O)cc1)NC(=O)C1(NC(=O)[C@@H](S)Cc2ccccc2)CCCC1 .
// result 17
